# Target System: T1, SMN (aa 80–170) (human, UniProt Q16637 80-170)
# T1 construct: Survival motor neuron protein (SMN), human, residues 80-170, covers the Tudor domain; cloned into the pET28-MHL vector; also called Survival motor neuron protein; source: E. coli BL21 (DE3), purified (Ni-NTA, size exclusion chromatography)
# T1 sequence (Q16637 80-170): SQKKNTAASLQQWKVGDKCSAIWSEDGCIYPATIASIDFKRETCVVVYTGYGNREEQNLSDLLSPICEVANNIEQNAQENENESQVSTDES
# Run Description: fluorescence polarisation; fluorescein-labeled peptides; 20 mM Tris pH 7.5, 50 mM NaCl, 1 mM DTT, 0.01% Triton X-100; 25°C; one-site binding model; Kd the average of three independent measurements
# Experimental Context: both partners purified
Square brackets hold non-standard residues; d marks the D form. Ends that are not written are not given here. Arg(Me2a) = CN(C)C(=N)NCCC[C@H](N)C(=O)O; Arg(Me2s) = CN=C(NC)NCCC[C@H](N)C(=O)O; Arg(Me) = CNC(=N)NCCC[C@H](N)C(=O)O
Value Kind: Kd

{"columns": ["Binder", "Value Kind", "Observed"],
 "data": [
  ["A[Arg(Me2a)]TKQTARKSY (also: fluorescein label, position not given here, histone H3 N-terminal tail; C-terminal tyrosine printed at the end of the peptide; also called histone H3R2 peptide, asymmetrically dimethylated; source: synthetic peptide (Tufts University Core Services)) [H3R2me2a]", "Kd", "> 200 µM"],
  ["TGRARARARGRARGQE (also: fluorescein label, position not given here, N-terminal GAR motif stretch of PIWIL1, unmethylated; also called unmethylated PIWIL1 peptide; source: synthetic peptide (Tufts University Core Services)) [PIWIL1-R4un]", "Kd", "> 300 µM"],
  ["A[Arg(Me2s)]TKQTARKSY (also: fluorescein label, position not given here, histone H3 N-terminal tail; C-terminal tyrosine printed at the end of the peptide; also called histone H3R2 peptide, symmetrically dimethylated; source: synthetic peptide (Tufts University Core Services)) [H3R2me2s]", "Kd", "> 150 µM"],
  ["A[Arg(Me)]TKQTARKSY (also: fluorescein label, position not given here, histone H3 N-terminal tail; C-terminal tyrosine printed at the end of the peptide; also called histone H3R2 peptide, monomethylated; source: synthetic peptide (Tufts University Core Services)) [H3R2me1]", "Kd", "> 300 µM"],
  ["TG[Arg(Me2s)]ARARARGRARGQE (also: fluorescein label, position not given here, N-terminal GAR motif stretch of PIWIL1, R4 symmetrically dimethylated; also called symmetrical dimethylated peptide of the PIWIL1 protein; source: synthetic peptide (Tufts University Core Services)) [PIWIL1-R4me2s]", "Kd", "34 µM"]
]}

Now look at this one.
Req: Please report the measured Kd for PPGM[Arg(Me2s)]GPPP (also: fluorescein label, position not given here, PGM motif stretch of the splicing protein SmB; also called sDMA PGM motif peptide from SmB; source: synthetic peptide (Tufts University Core Services)) [PGM(SmB221SD)]
Resp: > 500 µM
